Data origin: PubChem BioAssay (NCI)

# ASSAY EXPLANATION: NCI Yeast Anticancer Drug Screen. Data for the mlh1 rad18 strain (AID 175)
# CONDITION DETAILS: S. cerevisiae mlh1 rad18 strain growth inhibition; at 50.0 µM; hits give high values
The panel holds about 79,000 compounds, 15% with a hit somewhere; the sample as a whole holds those more often.
Outcome: Yes for growth inhibition of at least 10%; No for anything lower.

Quick check: does COC(=O)C1OC(O[C@H]2CC[C@]3(C)[C@H]4CC=C5[C@@H]6CC(C)(C)CC[C@]6(C(=O)OC)[C@H](O)C[C@@]5(C)[C@]4(C)CC[C@H]3C2(C)C)C(O)C(O)C1O (stereo partly specified) have growth inhibition greater than or equal to 10%?
Yes

Quick check: does `Cc1ccc(NC(=O)Oc2ccc3ccccc3c2)cc1NC(=O)Oc1ccc2ccccc2c1` have growth inhibition greater than or equal to 10%?
No

Dear colleague, could you confirm whether `CCOC(=O)CNC(=O)NC` has growth inhibition at or above 10%?
Yes

Tell me whether growth inhibition is at least 10% here: `Oc1ccc(C=NCCN=Cc2ccc(O)cc2)cc1`
Yes

Kindly determine if growth inhibition recorded for CC(=O)OCC1OC(n2c(C)c(C(C)=O)c(-c3cccc4ccccc34)c(C#N)c2=S)C(OC(C)=O)C(OC(C)=O)C1OC(C)=O (stereo unspecified) is above or exactly 10%.
Yes

Could you tell me if the measured growth inhibition of CCSC1OC(C(O)CO)C(O)C1NC(=O)C(F)(F)F (stereo unspecified) reaches 10% or more?
Yes

// inclusive: growth inhibition at least 10%? input: `Cc1cc(Br)c2c(c1N)C(=O)c1ccccc1C2=O`
Yes

Check if growth inhibition >= 10% (inclusive). Item: NC(Cc1ccc(S(=O)(=O)O)cc1)C(=O)NC(CCCCNC(=O)NCCCCC(NC(=O)C(N)Cc1ccc(S(=O)(=O)O)cc1)C(=O)NC(Cc1ccc(S(=O)(=O)O)cc1)C(=O)O)C(=O)NC(Cc1ccc(S(=O)(=O)O)cc1)C(=O)O (stereo unspecified)
Yes

Determine whether measured growth inhibition meets or exceeds 10% for `CCOC(=O)NCC(C)(C)C`
Yes

Determine whether this molecule has growth inhibition no lower than 10%: `CN(N)C(=O)NCCCl`
No

Form field: growth inhibition at least 10%? Entry: `CC(C)(C)OC(=O)Cn1ncn(NC(=O)Cc2ccccc2)c1=O`
No

---

# ASSAY EXPLANATION: NCI Yeast Anticancer Drug Screen. Data for the mlh1 rad18 strain (AID 175)
# CONDITION DETAILS: S. cerevisiae mlh1 rad18 strain growth inhibition; at 50.0 µM; hits give high values
# Method: Growth inhibition of yeast strains with defined genetic alterations is measured as a screen for potential anti-cancer activity. Selected strains with alterations in DNA damage repair or cell cycle control were exposed to compounds and growth inhibition was measured relative to vehicle treated controls. The strain used in this assay is mlh1 rad18
About 79,000 compounds went through this panel and 15% of them were active in at least one assay; those are over-represented in the sample as a whole.
Field: growth inhibition. Provide a value for each of the molecules that follow.
Respond with the bare value in %.

Looking for the measured growth inhibition of `Cc1cc(N=Nc2cc(Br)cc(Br)c2)cc(C)c1N` , can you help?
7.65

// query growth inhibition value for entry `O=C(O)/C=C\C(=O)Nc1ccccc1`
11.5

Record request: growth inhibition value, item N#CC(c1ccccc1)c1cccc(C(=O)O)c1 (centres undefined)
5.45

Reported growth inhibition for CC(=O)c1cc2c(cc1C(C)C)C(C)(C)C(C)CC2(C)C (centres undefined) : what is it?
17.4

---

# ASSAY EXPLANATION: NCI Yeast Anticancer Drug Screen. Data for the bub3 strain (AID 167)
# CONDITION DETAILS: S. cerevisiae bub3 mutant strain, at 50.0 µM, hits give high values
About 79,000 compounds went through this panel and 15% of them were active in at least one assay; those are over-represented in the sample as a whole.
MEASURED QUANTITY: growth inhibition (%)
Form entry: value (%) — number only.

Need growth inhibition, item `CCCN=C(C(C)=O)N(C)C`
24.2

Which growth inhibition reading was recorded for the molecule `CN1C(=O)C(=O)n2c(cc3ccccc32)C1=O` ?
-0.25

What value of measured growth inhibition is listed for `CCN(Cc1ccccc1)c1ccccc1C` ?
7.65

Query: growth inhibition; subject: `NC(=O)n1ncc(Cl)c(Cl)c1=O`
-1.8

Suppose we examine the molecule CC1(C)C2CC3C(=CCC4C(=O)C5CC=C6C(CC7CC6C7(C)C)C5C(=O)C43)C1C2 (stereo unspecified) ; what growth inhibition value has been reported?
-5.2

Need growth inhibition, item `O=NNc1ccc(S(=O)(=O)c2ccccc2)cn1`
-26.6

---

Can you tell me growth inhibition for the items I'm about to list?
# ASSAY EXPLANATION: NCI Yeast Anticancer Drug Screen. Data for the mec2-1 strain (AID 157)
# CONDITION DETAILS: S. cerevisiae mec2-1 strain, at 50.0 µM, hits give high values
The panel holds about 79,000 compounds, 15% with a hit somewhere; the sample as a whole holds those more often. Active and inactive are the calls of the source. No stated cut-off is given here; in the data, active means growth inhibition above about 70%; inactive means the rest.

Fill blank: measured growth inhibition of the molecule `COc1cc(O)c(C(C)=O)c2c1C=CC(C)(C)O2` is ____.
-47.1% (inactive)

# lookup: growth inhibition of `O=C(CCCc1ccc([N+](=O)[O-])cc1)c1ccccc1`
-5.55% (inactive)

Consider the molecule CC(C)=CC(=O)OC1C2C(C)=CC(=O)C(O)C2(C)C2C3(O)OCC24C(CC(=O)OC14)C(C)C3O (configuration not stated) and give its measured growth inhibition.
92.4% (active)

Sample O=C1Nc2ccccc2C2Cc3c([nH]c4ccccc34)CC12 (configuration not stated) — what was its growth inhibition?
20.1% (inactive)

Quick one: growth inhibition for `O=Cc1cc2c(cc1Br)OCO2` ?
16.1% (inactive)

For the molecule O=C1O[C@@H](c2ccc3c(c2)OCO3)C2C(=O)O[C@@H](c3ccc4c(c3)OCO4)C12 (some centres not stated) , what growth inhibition is on record?
8.95% (inactive)

Returns the measured growth inhibition for the input molecule. Input: CC(C)CCCC(C)C1CCC2C3CC=C4CCCCC4(C)C3CCC12C (configuration not stated)
-4.25% (inactive)

Please report the recorded growth inhibition for `CCN(CC)CCCn1cnc2ncccc2c1=O` .
-5.7% (inactive)

Quick one: growth inhibition of CCC1(O)CC2CN(CCc3c([nH]c4ccccc34)C(C(=O)OC)(c3cc4c(cc3OC)N(C)C3C(O)(C(N)=O)C(O)C5(CC)C=CCN6CCC43C65)C2)C1 (configuration not stated) (tested in a mixture with another compound) ?
-21.1% (inactive)

// query growth inhibition value for entry O=C(O)C(CSC(c1ccccc1)(c1ccccc1)c1ccccc1)NSc1ccccc1[N+](=O)[O-] (configuration not stated)
97.2% (active)

Looking for the measured growth inhibition of `CCOC(=O)CCc1cnc[nH]1` , can you help?
-8.95% (inactive)

Would you kindly share the measured growth inhibition for `O=Cc1ccccc1COC(=O)c1cc(C(=O)OCc2ccccc2C=O)c(C(=O)OCc2ccccc2C=O)cc1C(=O)OCc1ccccc1C=O` ?
7.15% (inactive)

---

# ASSAY EXPLANATION: NCI Yeast Anticancer Drug Screen. Data for the rad50 strain (AID 155);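 further: 0% = growth of vehicle-only cultures of the same strain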
# CONDITION DETAILS: S. cerevisiae rad50 strain growth inhibition; at 50.0 µM
The panel holds about 79,000 compounds, 15% with a hit somewhere; the sample as a whole holds those more often. The source made the active and inactive calls. No stated cut-off is given here; in the data, active means growth inhibition above about 70%; inactive means the rest.
Respond with a class label; see T = active, F = inactive

Outcome? Oc1ccc([C@H]2Oc3c(c(O)cc4c3C3c5c(O)cc(O)cc5OC(c5ccc(O)cc5)(O4)[C@H]3O)CC2O)cc1 (some centres not stated)
F

Recorded call for O=C(O)C1C(Br)C(Br)C1C(=O)O (configuration not stated) (tested in a mixture with another compound) ?
F

Called result for C[C@@]12CCC(=O)C=C1CC[C@H]1C2CC[C@]2(C)C1CC[C@H]2C(=O)COC(=O)CCC(=O)O (some centres not stated)
F

Could you please tell me the result logged for `CCN(CC)CCNC(=O)c1cn2c(ccc3sc4ccccc4c(=O)c32)n1` in this assay?
T

So what was the verdict on `OC1(c2ccc(F)cc2)CCNCC1` in this test?
F

Hi team, can someone confirm the assay call for `O=C1CN(C(=O)Nc2ccccc2)c2ccccc2N1` ?
F

Could you check what this test reported for COc1ccc2c(c1)OC(OC)(c1ccc(OC)c(OC)c1)C(O)(OC)C2=O (configuration not stated) ?
F

# lookup: test call for COc1ccc(C(C#N)NNc2nc(C)cc(=O)[nH]2)cc1OC (configuration not stated)
F

GET /call?item= OC(C1CCCCC1)(C1CCC2(CCCCC2)CC1)C1CCCC2CCCCC21 (configuration not stated) returns the recorded outcome of this test.
F

Please state the recorded outcome for this compound: `Nc1ccc2c(c1)Cc1cc(O)ccc1-2`
F

Identify the outcome logged in this assay for the compound shown: `O=c1oc2ccccc2cc1-n1nnc2ccccc21`
F

Per the records of this test, what outcome belongs to `O=C(NC(O)(C(F)(F)F)C(F)(F)F)c1ccccc1` ?
F

Outcome? CC1(C(=O)O)C2CCC(C2)C1C(=O)O (configuration not stated)
F

Recorded call for `c1nnc2c3c4c(sc3ncn12)CCCC4` ?
F

Can you look up the reported call for `NC(N)=NC(N)=Nc1c(F)c(F)c(F)c(F)c1F` for me?
F

Can you look up the reported call for `C=CCOC(=O)c1c(Cl)c(Cl)c(Cl)c(Cl)c1C(=O)O` for me?
F

Could you kindly confirm the outcome this assay logged for `Cc1c([O-])[n+]2cccc3ccn(c1=O)c32` ?
F

// return assay outcome for O=C(c1ccccc1)C1(c2ccccc2)C(C(=O)c2ccccc2)(c2ccccc2)S1(=O)=O (configuration not stated)
F

Which outcome was entered for the compound COc1cc(C(=O)NNC(=O)C2CCC(=O)N2Cc2ccccc2)cc(OC)c1OC (configuration not stated) in this test?
F

Field: outcome | Entry: `COc1ccc(C)cc1S(=O)(=O)c1ccc(C)cc1[N+](=O)[O-]`
F

Kindly provide the recorded test outcome for the following compound: `C=CCNC(=S)Nc1cc(Cl)ccc1OC`
F

Hi, do you know how CC(O)CNc1ncnc2ccccc12 (configuration not stated) came out in this test?
F

Short answer needed: outcome of this test for O=C1CCC(c2n[nH]c(=S)o2)N1 (configuration not stated) ?
F

Field: outcome | Entry: `O=C(O)c1c2ccccc2nc2ccccc12`
F

Just curious, what result did CCCC(=O)C(C)C(=O)CC (configuration not stated) get here?
F

Fill in: this test's call for `Cc1ccc(S(=O)(=O)Nc2ccc(S(C)(=O)=O)cc2)cc1` is ___
F

Name the outcome recorded for `O=C(NCP(=O)(c1ccccc1)c1ccccc1)OCc1ccccc1` in the assay.
F

# lookup: test call for `CCCCCC(/C=C/c1ncccc1OCCCCCC(=O)O)=N\NC1=NCCN1`
F

// return assay outcome for `CC1=NN(C(=O)c2ccccc2O)C(=O)/C1=C/c1cccc([N+](=O)[O-])c1`
F

Returns: the outcome recorded for `COc1ccccc1-c1cc(=O)c2cc(C)cnc2[nH]1` in this assay.
F

Could you kindly confirm the outcome this assay logged for COc1ccc(-n2c(C)nc3c(cnn3C3OC(CO)C(O)C3O)c2=O)cc1 (configuration not stated) ?
F

How was `Cc1cccc(C)c1NC(=O)C(=O)Cc1nc2ccccc2s1` classified in this test?
F

Please share the test call associated with `COc1ccc(NC(=O)Oc2ccc(C#N)cc2)cc1` .
F

Tell me the assay call for CCCCCCCCCCCCCCCC(=O)Nc1ccn(C2OC(CO)C(O)C2O)c(=O)n1 (configuration not stated) please.
F

Outcome logged for `O=c1c2c(sc3ccccc13)CCC2` in this assay:
F

Identify the outcome logged in this assay for the compound shown: `CCOC(=O)[C@H]1Nc2ccc(Cl)cc2[C@H]2OCC[C@@H]12`
F

How did this test come out for CN1CCCC1c1cccnc1.O=C(O)c1ccccc1O.O=C([O-])c1ccccc1[OH2+].O=C([O-])c1ccccc1[OH2+].[Mn+2] (configuration not stated) ?
F

Please let me know the test result on file for COc1cc2c(cc1O)C(C)C(c1ccccc1)O2 (configuration not stated) .
F

Hi, do you know how CN1NC(=O)CC1c1ccccc1 (configuration not stated) came out in this test?
F

Field: outcome | Entry: `Clc1cccc2c(SCCCCCSc3c4ccccc4nc4c(Cl)cccc34)c3ccccc3nc12`
F

Outcome logged for CC(c1ccccc1)C1(C)NC(=O)NC1=O (configuration not stated) in this assay:
F

# lookup: test call for CSCCC(O)C(=O)O (configuration not stated)
F
